Where these numbers come from: PubChem BioAssay (NCI)

TGI values, listed per item
# Tested on: CAKI-1 renal
# Assay Notes: NCI tumour cell line growth inhibition, 48 h
Quantity Name: TGI

• Cc1ccc(NC(=O)CC(=O)n2nc(-c3ccccc3)c(N=Nc3ccccc3C(=O)O)c2-c2ccccc2)cc1 = > 100 µM
• Cc1ccc(S(=O)(=O)N/N=C2/C3C(CC2(C)C)C2(C)CCCC3(C)C2O)cc1 (stereo not given) = > 100 µM
• O=S1CCN(Cc2ccc(-c3ccc4ncnc(Nc5ccc(OCc6ccccc6)c(F)c5)c4c3)o2)CC1 = > 25 µM
• CC[C@@]1(O)C(=O)OCc2c1cc1n(c2=O)Cc2cc3c(Cl)c4c(cc3nc2-1)OCO4 = > 100 µM
• O=C1c2ccccc2-c2c1c1c(O)cccc1n2CCCc1ccccc1 = > 100 µM
